# Tested on: M19-MEL
# testSummary: NCI tumour cell line growth inhibition, 48 h
Activity calls are given as the source filed them. Rule as the data show it: active = GI50 up to about 1.1 µM and inactive = higher.
attributeMeasured: GI50

Examples from the recorded data:
In [3]: df
Out[3]:
                                   molecule  attributemeasured        valueobserved
0  O=C(c1ccccc1)C1(Br)S(=O)(=O)OCCOS1(=O)=O               GI50  > 100 µM (inactive)
1  O=C(CSc1nnc(-c2ccc(/N=C\c3ccc(Cl)cc3)cc2)o1)Nc1ccccc1[N+](=O)[O-]               GI50  > 100 µM (inactive)
2  CC1=C(/C=C/C(C)=C/C=C/C(C)=C/C=C/C=C(C)/C=C/C=C(C)/C=C/C2=C(C)C(=O)C(O)CC2(C)C)C(C)(C)CC(O)C1=O (stereo unspecified)               GI50  > 100 µM (inactive)

Then there is this molecule:
-- ask Tell me its GI50 given `O=c1c2cc(Cl)ccc2n2nnc3ccc(NCCNCCO)c1c32` as the entry.
-- reply 1.55 µM (inactive)

* * *

Known GI50 of a selection of compounds
# Tested on: U-251
# testSummary: NCI tumour cell line growth inhibition, 48 h
Calls of active or inactive are those of the source. Cut-off read from the data, not from the text of the source: active = GI50 up to about 1.1 µM and inactive = higher.

Examples from the recorded data:
compound	targetOfAssay	valueObserved
CC1=C(C(=O)CC(=O)C(=O)Nc2ccccc2C)Sc2ccccc2N1	U-251	> 61.2 µM (inactive)
CC(C)(CC(O)C#N)/[N+]([O-])=[N+](\[O-])C(C)(C)CC(O)C#N (centres undefined)	U-251	26.5 µM (inactive)
CC1(C)O[C@H]2OC3CCC(=O)CC3(O)[C@H]2O1 (some centres undefined)	U-251	> 100 µM (inactive)
O=C1/C(=C/c2ccccc2Cl)COc2ccccc21	U-251	13.7 µM (inactive)
CCCCSC1=N/C(=C\c2ccccc2O)C(=O)N1	U-251	43.8 µM (inactive)
OC(NN=C1CCCC1)(C(F)(F)Cl)C(F)(F)Cl	U-251	> 10 µM (inactive)

-- ask Tell me its GI50 given CC(=O)NC(CSC1=C2NC(=O)\C=C/C=C\C=C/C(C)C(O)CC(=O)/C(C)=C\CC(O)/C=C\C(C)C(O)C(C)C=C(C)C(=O)c3c(O)c(C)cc(c3C1=O)C2=O)C(=O)O (centres undefined) as the entry.
-- reply 43.2 µM (inactive)

-- ask Tell me its GI50 given CC1=CCC[C@H]2[C@](C)(CC3=CC(=O)C4SCCSC4C3=O)[C@@H](C)CC[C@]12C (some centres undefined) as the entry.
-- reply 14.5 µM (inactive)

-- ask Tell me its GI50 given CCC(=O)Nc1nc2c(ncn2C2OC(COC(=O)CC)C(OC(=O)CC)C2OC(=O)CC)c(=O)[nH]1 (centres undefined) as the entry.
-- reply > 100 µM (inactive)

* * *

# Tested on: TK-10
# testSummary: NCI tumour cell line growth inhibition, 48 h
Calls of active or inactive are those of the source. Cut-off read from the data, not from the text of the source: active = GI50 up to about 1.1 µM and inactive = higher.
Can you answer with just one of these options? t (active), f (inactive)

Past entries and their recorded results:
compound	label
CSCCCNC(=O)c1csc(-c2csc(CCNC(=O)CNC(=O)CNC(=O)OC(C)(C)C)n2)n1	f
C=C1C(=O)CC2C(=O)C(C)(O)CC/C=C(\C)C(=O)CC12 (stereo not given)	f
COC(=O)C1(C)CCC(c2ccc(C)cc2)=C(CC(=O)O)C1 (stereo not given)	f
N#Cc1c(O)c(/C=N/c2ncccn2)c(=O)n2c1[nH]c1ccccc12	f
O=c1nc(NC(c2ccccc2)(c2ccccc2)c2ccccc2)ccn1CCNCCn1ccc(NC(c2ccccc2)(c2ccccc2)c2ccccc2)nc1=O	f
Cc1ccc(/N=N\c2c(O)ccc3cc(S(=O)(=O)O)ccc23)cc1	f
CN1C(=O)c2c(c3c4ccccc4n(C4OC(CO)C(O)C(O)C4O)c3c3[nH]c4ccccc4c23)C1=O (stereo not given)	f
CCSC1=N/C(=C\c2ccco2)C(=O)N1	f

-- ask Please indicate how the test categorized CCC(=O)OC1CCn2c1nc1c2C(=O)C(C)=C(N2CC2)C1=O (stereo not given) .
-- reply t

-- ask Please indicate how the test categorized `O=C1c2ccccc2C(=O)c2c1oc(=O)c1ccccc21` .
-- reply f

-- ask Please indicate how the test categorized `COC(=O)c1ccccc1/C=C1\Cc2c(ccc3c2CCC3)C1=O` .
-- reply f

-- ask Please indicate how the test categorized `CCOC(=O)/C(Br)=C1\OC(=O)c2ccccc2-c2ccccc21` .
-- reply f

-- ask Please indicate how the test categorized COc1ccc(CC(C)N)cc1 (stereo not given) .
-- reply f

-- ask Please indicate how the test categorized `O=C(O)COc1cc(-c2ccccc2F)nc2cc3c(cc12)OCO3` .
-- reply f

* * *

# Test system: OVCAR-5
# testSummary: NCI tumour cell line growth inhibition, 48 h
Active and inactive are the calls of the source. Rule as the data show it: active = GI50 up to about 1.1 µM and inactive = higher.
Can you answer with just one of these options? active, inactive

compound	label
CC(C)(CN1CCCCC1)C(=O)/C=C/c1ccc(/C=C/C(=O)C(C)(C)CN2CCCCC2)cc1	active
O=C1Oc2ccccc2C(=O)/C1=C/N1C(=O)/C(=C/c2ccc3c(c2)OCO3)SC1=S	inactive
Cc1cc([N+](=O)[O-])ccc1Sc1c2ccccc2nc2cc(Cl)ccc12	inactive
CC[C@]1(Cc2ccc(OC)c(OC)c2)[C@@H]2C[C@@H](C(=O)OC)ON2O[C@H](OC2CCCC2(c2ccccc2)c2ccccc2)[C@@H]1OC(C)=O (stereo not given in full)	inactive
CC(=O)CC(=O)N1CCOC1=O	inactive
C[Si](C)(C)C1=C([Si](C)(C)C)C(Cl)(Cl)C1=O	inactive

-- ask Please indicate how the test categorized `COc1c(-c2ccc3c(c2)OCO3)oc2cc(O)cc(O)c2c1=O` .
-- reply inactive

-- ask Please indicate how the test categorized COc1ccc(C2SC(=N)Nc3c2c(C)nn3C(=O)c2ccccc2O)cc1 (stereo not given) .
-- reply inactive

-- ask Please indicate how the test categorized `CC[C@H]1C=CCC[C@@]2(C[C@@H]3CC[C@@H]4[C@H](C(=O)OCCCCCCCCCCCCCCCC(=O)N(CCCN)C[C@@H](O)CCN)[C@]5(CCC[C@@H](C)O5)NC(=[N+]34)N2)O1` .
-- reply active

-- ask Please indicate how the test categorized `COC(C)(C)/C=C/c1[nH]c2ccccc2c1CC(=O)NCCc1cn(C(c2ccccc2)(c2ccccc2)c2ccccc2)cn1` .
-- reply inactive

-- ask Please indicate how the test categorized `O=C(O)CSc1nnc(-c2ccc(O)cc2)[nH]1` .
-- reply inactive

-- ask Please indicate how the test categorized `OC[C@H](O)[C@@H](OCc1ccccc1)[C@H](NCc1ccccc1)c1cccs1` .
-- reply inactive

-- ask Please indicate how the test categorized `O=C1c2[nH]c3ccc(Br)cc3c2CCN1Cc1ccc(Cl)cc1` .
-- reply inactive

-- ask Please indicate how the test categorized `NNS(=O)(=O)c1ccc(/C=C2\NC(=O)NC2=O)cc1` .
-- reply inactive

* * *

# Test system: SF-539
# testSummary: NCI tumour cell line growth inhibition, 48 h
Active and inactive are the calls of the source. No stated cut-off is given here; in the data, active = GI50 up to about 1.1 µM and inactive = higher.
Can you answer with just one of these options? active, inactive

Past entries and their recorded results:
compound	targetOfAssay	label
COc1ccc(/C=C2\c3cc(OC)c(OC)cc3CCN2C(=O)c2ccccc2)cc1OC	SF-539	inactive
COc1ccc(C2=Nn3c(nc4sc5c(c4c3=O)CCCC5)SC2)cc1	SF-539	inactive
C/C(CCOC1CCCCO1)=C(\C)[Si](C)(C)C (stereo not drawn)	SF-539	inactive

Would you kindly look at the next entry?
-- ask Please indicate how the test categorized `Brc1ccc2[nH]cc(-c3csc(-c4c[nH]c5ccccc45)n3)c2c1` .
-- reply inactive

* * *

# Tested on: DU-145
# testSummary: NCI tumour cell line growth inhibition, 48 h
Activity calls are given as the source filed them. Rule as the data show it: active = GI50 up to about 1.1 µM and inactive = higher.
Can you answer with just one of these options? Y = active, N = inactive

Past entries and their recorded results:
In [3]: df
Out[3]:
                                   compound  label
0  CC(C)CCCC(C)[C@H]1CC[C@H]2n3c(nc4ccccc43)CCC[C@]12C (some centres not stated)      N
1  CSc1ncnc2c1ncn2CC(=O)C1CCC2C3CCC4=CC(=O)CCC4(C)C3CCC12C (configuration not stated)      N
2              CCSC1=N/C(=C\c2ccco2)C(=O)N1      N
3         Nc1ccc2c3[nH]c4cc(N)ccc4cc-3nc2c1      Y
4  O=C1Nc2cc([N+](=O)[O-])ccc2N/C1=C/C(=O)c1ccc(Cl)cc1      N

-- ask Please indicate how the test categorized C=CC(OC(C)=O)c1ccc(OC(C)=O)cc1 (configuration not stated) .
-- reply N

-- ask Please indicate how the test categorized `CN(C)CCNc1ccc(NCC[N+](C)(C)Cc2ccc([N+](=O)[O-])cc2)c2c1C(=O)c1ccccc1C2=O` .
-- reply N
